Test: in vitro
Conditions: human, plasma
reportedEndpoint: fraction unbound at 5 h
# answer = number (no unit)

{"columns": ["compound", "reportedEndpoint", "val"],
 "data": [
  ["Cc1cc2c(s1)Nc1ccccc1N=C2N1CCN(C)CC1", "fraction unbound at 5 h", 0.107],
  ["CC(NC(C)(C)C)C(=O)c1cccc(Cl)c1 (centres undefined)", "fraction unbound at 5 h", 0.54]
]}

Query block: Entry `O=C1COc2ccc(CNC3CCN(CCN4C(=O)COc5ccc(-c6ccco6)cc54)CC3)nc2N1` : reported fraction unbound at 5 h = ?
Result block: 0.006

Query block: Entry `Cc1cccc([C@H](C)c2c[nH]c(=S)[nH]2)c1C` : reported fraction unbound at 5 h = ?
Result block: 0.17
